- System: SN12C renal
- assay_comment: NCI tumour cell line growth inhibition, 48 h
Listed here are compounds together with their documented TGI.

{"compound": "CC(=O)NC1C(OCc2ccccc2)OC(CO)C(O)C1OCC(=O)NC(C)C(=O)NC(CCC(=O)NCCCCNc1ccc([N+](=O)[O-])c2[nH]c3ccccc3c(=O)c12)C(N)=O (stereo not drawn)", "TGI": "> 100 µM"}
{"compound": "O=C(O)CN(c1ccccc1)S(=O)(=O)c1ccc(NC(=O)c2ccccc2)cc1", "TGI": "> 100 µM"}
{"compound": "CC(=O)C1=C(O)C=C2Oc3c(C(=O)/C=C/c4cc(C(F)(F)F)cc(C(F)(F)F)c4)c(O)c(C)c(O)c3[C@]2(C)C1=O", "TGI": "2.02 µM"}
{"compound": "O=S(=O)(c1ccc(Br)cc1)n1c2ccc(Br)cc2c2nc3ccccc3nc21", "TGI": "> 100 µM"}
{"compound": "CCOc1cc2c(cc1O)/C(=N\\N)C[C@@H]1[C@@H]2CC[C@]2(C)[C@@H](O)CC[C@@H]12", "TGI": "> 42.4 µM"}
{"compound": "C=C(C)C(=O)CC[C@@H](C)[C@H]1[C@@H](OC2OC(CO)C(O)C(O)C2O)C[C@@]2(C)[C@@H]3C[C@H](O)C4C(C)(C)[C@@H](OC5OC(CO)C(O)C(O)C5O)CC[C@@]45C[C@@]35CC[C@]12C (stereo partly drawn)", "TGI": "> 100 µM"}
{"compound": "Cn1cc(-c2nonc2-c2c[nH]c3ccccc23)c2ccccc21", "TGI": "12.1 µM"}
{"compound": "Cc1ccc(C)n1-c1ccccc1C1SCCCS1", "TGI": "> 100 µM"}
{"compound": "COc1cccc2c1OC1c3ccccc3OCC1C2 (stereo not drawn)", "TGI": "> 100 µM"}
{"compound": "CCC(C)CN1C(=O)NC(C)(Cc2ccccc2)C1=O (stereo not drawn)", "TGI": "> 100 µM"}
{"compound": "O=C(/C=C/c1ccc(B(O)O)cc1)/C=C/c1ccc(B(O)O)cc1", "TGI": "13.9 µM"}
{"compound": "CC(=O)N1CCN(C2=Nc3ccccc3CO2)C1=S", "TGI": "> 100 µM"}
{"compound": "c1csc(-c2ccc(-c3ccc(-c4ccc(-c5cccs5)s4)s3)s2)c1", "TGI": "> 100 µM"}
{"compound": "CC[n+]1cnc(N)c2c(-c3ccc(Cl)cc3)cn(-c3ccc(C)cc3)c21", "TGI": "25.2 µM"}
{"compound": "NNC(=S)N/N=C(\\CCCC(=O)NCCc1ccccc1)CC(=O)c1ccccc1", "TGI": "> 100 µM"}
{"compound": "Cc1cc(C)nc(NC(N)=NCCc2ccccc2)n1", "TGI": "35.8 µM"}
{"compound": "O=C(CC1=Nc2nnc(-c3nnc4n3C(=O)C(CC(=O)c3cccnc3)=N4)n2C1=O)c1cccnc1", "TGI": "> 100 µM"}
{"compound": "N#Cc1cccc(N2C(=O)c3c(c(-c4ccccc4)c(-c4ccc(Sc5ccc(-c6c(-c7ccccc7)c7c(c(-c8ccccc8)c6-c6ccccc6)C(=O)N(c6cccc(C#N)c6)C7=O)cc5)cc4)c(-c4ccccc4)c3-c3ccccc3)C2=O)c1", "TGI": "> 100 µM"}

----------
Reported GI50 by item:
- System: DU-145 prostate
- assay_comment: NCI tumour cell line growth inhibition, 48 h

{"compound": "COc1cccc([C@H]2CC(=O)c3cc4c(cc3N2)OCO4)c1", "GI50": "67 nM"}
{"compound": "COc1ccc(C#Cc2ccccc2C#CCCCCO)cc1", "GI50": "21300 nM"}
{"compound": "Cc1c2cnccc2c(C)c2c1c1cc(C3OCCCO3)ccc1n2C", "GI50": "371 nM"}
{"compound": "CC(=O)C1=C(O)C=C2Oc3c(C(=O)/C=C/c4cc(C(F)(F)F)cc(C(F)(F)F)c4)c(O)c(C)c(O)c3[C@]2(C)C1=O", "GI50": "630 nM"}
{"compound": "C=CC(=O)Nc1ccc(Nc2nccc(-c3ccc(N4CCCC4)c(C#N)c3)n2)cc1", "GI50": "14100 nM"}
{"compound": "Cc1c2cc[nH]c(=O)c2c(C)c2c1[nH]c1cc(OCCN3CCN(C)CC3)ccc12", "GI50": "813 nM"}
{"compound": "CO[C@H](C(=O)[C@@H](O)[C@@H](C)O)[C@@H]1Cc2cc3cc(O[C@H]4C[C@@H](O[C@H]5C[C@@H](O)[C@H](O)C(C)O5)[C@H](O)C(C)O4)c(C)c(O)c3c(O)c2C(=O)[C@H]1O[C@H]1C[C@@H](O[C@H]2C[C@@H](O[C@H]3C[C@@H](OC)[C@H](O)C(C)O3)[C@@H](O)C(C)O2)C(O)(O)C(C)O1 (some centres not stated)", "GI50": "237 nM"}
